assay: chemical genetic growth profiling, strain panel (AID 1159580);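 also: tested at 20 µM; growth read once vehicle control cultures reached saturation at 30 °C; 1 = growth at the plate median or of vehicle wells; lower values mean less growth of the strain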; conditions: S. cerevisiae deletion strains, growth OD, locus YKL190W, strain CNB1, hits give low values
In all, about 5,500 compounds went through this assay and about 2,000 (36%) were called active. Not shown: some 18% with an inconclusive outcome. This is one part of the list.
Recorded normalized growth, one value per entry.
readoutType: normalized growth

compound="COc1cc(C)c2c(c1C=O)Oc1c(c(C)c(O)c3c1C(O)OC3=O)OC2=O (configuration not stated)" measvalue=0.989
compound=CC[C@]12CCCN3CCc4c(n(c5ccccc45)C(=O)C1)[C@@H]32 measvalue=0.941
compound=COS(C)(=O)=O measvalue=1
compound=C[C@](N)(Cc1ccc(O)c(O)c1)C(=O)O measvalue=0.951
compound=Cc1onc(-c2ccccc2Cl)c1C(=O)Nc1ccc(S(=O)(=O)Nc2nccs2)cc1 measvalue=0.989
compound=O=c1[nH]cnc2ccc(Br)cc12 measvalue=1.01
compound=CC(C)(O)C#Cc1ccc(/C=N\O)cc1 measvalue=1
compound="O=C1NC(c2c(F)cccc2Cl)Nc2ccccc21 (configuration not stated)" measvalue=1.01
compound=CCNS(=O)(=O)c1cc(Cl)sc1Cl measvalue=1
compound=CCOP(=S)(OCC)SCCSCC measvalue=0.964
compound=COC(=O)c1cc(OC)c(OC)cc1NS(=O)(=O)c1ccc(C)cc1 measvalue=1
compound=CCOC(=O)C1=C[C@]2(CC)CCCN3CCc4c(n1c1ccccc41)[C@@H]32 measvalue=0.982

* * *

assay: chemical genetic growth profiling, strain panel (AID 1159580);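 also: tested at 20 µM; growth read once vehicle control cultures reached saturation at 30 °C; 1 = growth at the plate median or of vehicle wells; lower values mean less growth of the strain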; conditions: S. cerevisiae deletion strains, growth OD, locus YNL197C, strain WHI3, hits give low values
Out of some 5,500 compounds screened, about 2,000 (36%) were called active. Roughly 18% stayed inconclusive and do not appear here. This is one part of the list.
Recorded normalized growth, one value per entry.
readoutType: normalized growth

molecule="COc1ccccc1OCC(O)CN1CCN(CC(=O)Nc2c(C)cccc2C)CC1 (centres undefined)" measvalue=1.01
molecule="CCOC(=O)C1=CC2(CC)CCCN3CCc4c(n1c1ccccc41)C32 (centres undefined)" measvalue=1.03
molecule="CC1CN(S(=O)(=O)c2cccc3cnccc23)CCN1 (centres undefined)" measvalue=1.01
molecule="CCCN(CCC)C(=O)C(CCC(=O)O)NC(=O)c1ccccc1 (centres undefined)" measvalue=1.08
molecule=Oc1cc(O)cc(/C=C/c2ccc(O)c(O)c2)c1 measvalue=1
molecule=OC[C@H]1O[C@@H](n2cnc3cncnc32)[C@H](O)[C@@H]1O measvalue=1
molecule=COCCCCC(=NOCCN)c1ccc(C(F)(F)F)cc1 measvalue=1
molecule="CN(C)CCCO[C@@H]1[C@H]2OC(C)(C)O[C@H]2O[C@@H]1C(O)CO (some centres undefined)" measvalue=1.03
molecule="COC(=O)C(C)(N)Cc1ccc(O)cc1 (centres undefined)" measvalue=0.99
molecule="CC(N)(Cc1ccc(O)c(O)c1)C(=O)O (centres undefined)" measvalue=1.01
molecule="CCCNC(C)C(=O)Nc1ccccc1C (centres undefined)" measvalue=1.04
molecule=CC[C@H]1CN2CCc3cc(OC)c(OC)cc3[C@@H]2C[C@@H]1C[C@H]1NCCc2cc(OC)c(OC)cc21 measvalue=1.02
molecule=C[C@H](Cc1ccc2c(c1)OC(C(=O)O)(C(=O)O)O2)NC[C@H](O)c1cccc(Cl)c1 measvalue=0.987
molecule="CCC(CO)NC(=O)C1C=C2c3cccc4c3c(cn4C)CC2N(C)C1 (centres undefined)" measvalue=1.02
molecule=C[C@@](Cc1ccc(O)c(O)c1)(NN)C(=O)O measvalue=0.993
molecule="CC(C)CC(NP(=O)(O)O[C@@H]1O[C@@H](C)[C@H](O)[C@@H](O)[C@H]1O)C(=O)NC(Cc1c[nH]c2ccccc12)C(=O)O (some centres undefined)" measvalue=1
molecule="CN(C(=O)Cc1ccc(Cl)c(Cl)c1)C(CN1CCCC1)c1cccc(OCC(=O)O)c1 (centres undefined)" measvalue=0.997
molecule=O=C(O)CC[C@@H](NC(=O)c1ccccc1C(=O)O)C(=O)O measvalue=1.01
molecule=CN[C@H](CC(C)C)C(=O)N[C@H]1C(=O)N[C@@H](CC(N)=O)C(=O)N[C@H]2C(=O)N[C@H]3C(=O)N[C@H](C(=O)N[C@H](C(=O)O)c4cc(O)cc(O)c4-c4cc3ccc4O)[C@H](O)c3ccc(c(Cl)c3)Oc3cc2cc(c3O[C@@H]2O[C@H](CO)[C@@H](O)[C@H](O)[C@H]2O[C@H]2C[C@](C)(N)[C@H](O)[C@H](C)O2)Oc2ccc(cc2Cl)[C@H]1O measvalue=1.03
